Cited source: ChEMBL document CHEMBL6071187

- Test system: Granta-519
- Assay Explanation: Cytotoxicity against human Granta-519 cells assessed as reduction in cell viability incubated for 72 hrs by MTS assay
- Format: functional, cell-based
- Reported Conditions: Granta-519, 72 h
Hi there, I'd appreciate the recorded pIC50 for every entry that follows.
Give bare numbers, as −log10 of the molar value.

For orientation, consider the following solved cases.
CC1CC(C)CN(S(=O)(=O)c2ccc3c(c2)/C(=N/O)c2cc(S(=O)(=O)N4CCN(C(=O)CCNc5cccc6c5C(=O)N(C5CCC(=O)NC5=O)C6=O)CC4)ccc2/C3=N\O)C1 (stereo not given) | 6.40
C[C@@H]1C[C@H](C)CN(S(=O)(=O)c2ccc3c(c2)C(=NO)c2cc(S(=O)(=O)N4C[C@H](C)C[C@H](C)C4)ccc2C3=NO)C1 | 7.03

From here, focus on the item given below.
Asked: Give recorded pIC50 with Granta-519 for the following compound: CC1CC(C)CN(S(=O)(=O)c2ccc3c(c2)/C(=N/O)c2cc(S(=O)(=O)N4CCN(C(=O)CCCCCCNc5cccc6c5C(=O)N(C5CCC(=O)NC5=O)C6=O)CC4)ccc2/C3=N\O)C1 (stereo not given)
Given back: 6.36
